TARGET ENTITY: T1, MPDZ_12, O75970
T1 sequence (O75970 1857-1958, limits assumed, looked up): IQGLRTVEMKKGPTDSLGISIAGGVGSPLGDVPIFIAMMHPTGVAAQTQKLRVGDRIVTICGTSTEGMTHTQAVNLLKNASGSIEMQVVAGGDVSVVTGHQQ
EXPERIMENTAL DETAILS: holdup assay
Set-up: key: below the threshold = too weak to quantify, mostly under pKd 3.1 to 4
EXPERIMENTAL CONDITIONS: plain residues with an end cap or a label only (N-terminal biotin on a linker: ado-ado)
REPORTED METRIC: pKd
Give only the figure.

Some binders with known pKd results, for comparison:
# BINDER, OBSERVED
measured = [
    ("TKEIPNCTSV [SORCS3, Q9UPU3]", 3.84),
    ("QLGSPTADLA [SIPA1, Q96FS4]", 3.75),
    ("KAEEKPPSKV [SCN4B, Q8IWT1]", 3.49),
]

Proceed to the following item.
Quick one: pKd of GSQSQVETEA [FKBP4, Q02790] ?
3.52
